# System: NCI-H226 lung
# Measurement Notes: NCI-60 one-dose screen, 48 h (100 = growth as untreated, 0 = no growth, -100 = all killed)
# Settings: 10 µM unless noted
The panel holds about 83,000 compounds, 20% with a hit somewhere; the sample as a whole holds those more often.
Readout: growth (%)
One number for each entry, in %.

Example cases with answers are listed next.
>  <Compound>
COc1cc2c(=O)n(CCN(C)C)c3c4cc5c(cc4ccc3c2cc1OC)OCO5

>  <Readout>
growth

>  <Result Value>
-97.6

$$$$
>  <Compound>
CCCCCN1C=C/C(=C\C(=O)N2CCCc3ccccc32)c2ccccc21

>  <Readout>
growth

>  <Result Value>
79.3

$$$$
>  <Compound>
CCOC(=O)Nc1ccc(-c2ccc3c(c2)NC(=O)/C3=C\c2ccc[nH]2)cc1

>  <Readout>
growth

>  <Result Value>
68

$$$$
>  <Compound>
Cc1ccc(/C=N/NC(=O)CSc2nc3ccccc3c(=O)n2Cc2ccc(S(N)(=O)=O)cc2)cc1

>  <Readout>
growth

>  <Result Value>
84.6

$$$$
>  <Compound>
Cc1cccc(NC(=O)Nc2ccc(-n3cnc4cc(-c5ccc(O)cc5)ccc43)cc2)c1

>  <Readout>
growth

>  <Result Value>
62.6

$$$$
>  <Compound>
Cc1cccc(-c2cn3ccnc3c(-c3ccc4ncn(Cc5ccccc5)c4c3)n2)c1

>  <Readout>
growth

>  <Result Value>
98.8

$$$$
>  <Compound>
Cn1c2ccccc2c2c3c(c4c5ccccc5n(C)c4c21)C(=O)OC3

>  <Readout>
growth

>  <Result Value>
80.9

$$$$
>  <Compound>
Cc1cccc(NC(=O)Nc2ccc(-c3ccc4c(c3)NC(=O)/C4=C\c3ccc[nH]3)cc2)c1

>  <Readout>
growth

>  <Result Value>
85.5

$$$$

Hi there! I need growth for each item below, if you can.
1. CC(c1ccccc1)C(C(=O)c1ccccc1)c1ccccc1 (stereo not drawn)
2. C[C@H]1[C@H](C)CC[C@]2(C(=O)Nc3ccc4ncccc4c3)CC[C@]3(C)C(=CC[C@@H]4[C@@]5(C)CCCNC(C)(C)[C@@H]5CC[C@]43C)[C@H]12
3. c1ccc(Cn2cnc3ccc(-c4nc(-c5ccc6c(c5)ncn6C5CCCCC5)cn5ccnc45)cc32)cc1
4. COc1ccc(/C=C2\Oc3cc(OCCCN4CCCCC4)ccc3C2=O)cc1OC
5. O=C1c2ccccc2C(=O)c2c([N+](=O)[O-])ccc(Cl)c21
6. CCOC(=O)c1cc(C(=O)c2ccc(OC)c(OC)c2)n2ccc(/C=C/c3cc[n+](CC(=O)c4ccc(OC)c(OC)c4)cc3)cc12
7. COc1ccccc1/C(C)=N/NC(=O)CSc1nc2ccccc2c(=O)n1Cc1ccc(S(N)(=O)=O)cc1
8. COc1cccc(/C=N/NC(=O)c2cnn3c2NC(c2ccccc2)C3)c1Oc1ccccc1 (stereo not drawn)

-- reply
73.5
110
-63.1
90
102
99.2
95.5
97.7

Look up growth for the entries below, preserving their order.
1. COc1cccc2c1c1nc3cc(C)c(C)cc3nc1n2CCN(C)C
2. CCC(CC)NCC(C)(C)O
3. CNC(=O)c1cccc(Cn2nc(C)c(NC(=O)c3ccc(COc4ccc(C(F)(F)F)cc4C)cc3)c2C)c1
4. COc1ccc(C(=O)c2nc3ccccc3n2CC(=O)c2ccc(Cl)cc2)cc1
5. C#CCNC(=O)c1cccc2c1cc(C)n2-c1nc2c(c(NCc3ccccc3)n1)CCCC2

-- reply
-6.81
109
44.6
37.5
-67.1

For every record below, what is its growth?
1. CN1C(=O)NC(c2ccc3c(c2)OCO3)C=C1c1ccccc1 (stereo not drawn)
2. N#C/C(=C\c1cccc(C#N)c1)c1ccccc1

-- reply
1. 103
2. 105
